// self-aminoacylation lookup, one value per entry
- System: biotinyl-Met-oxazolone
- Run description: self-aminoacylation, catalytic enhancement (BMO) (fold over background); higher = more active; k-Seq, kA / k0A0; sequences stand for … in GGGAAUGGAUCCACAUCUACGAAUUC…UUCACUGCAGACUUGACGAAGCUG
Fewer inactive variants are shown than the library holds.
# output: bare number, no unit

Consider the worked cases shown below.
Sequence data | self-aminoacylation
CCACACAACAAGCAAUCGGUC [Fam1B.1 aminoacylation ribozyme variant] | 0.781
AUUAACCUGGUCAUCGAGUGC [Fam2.1 aminoacylation ribozyme variant] | 1.25
CCACACUUCCAGCAAUCGGCC [Fam1B.1 aminoacylation ribozyme variant] | 2.08
AUUCACGUAGGUCAUCGGGUA [Fam2.2 aminoacylation ribozyme variant] | 3.16
AUUGACCUAGGUUAUCGGGUG [Fam2.2 aminoacylation ribozyme variant] | 4.96
AAGUAUGUUAAUAGUCGCAAG [Fam3.1 aminoacylation ribozyme variant] | 1.4
GAGUUAGCUAAUAGUCGCAAG [Fam3.1 aminoacylation ribozyme variant] | 1.5
AUUACCCUGGUGAUCGAUUGA [Fam2.1 aminoacylation ribozyme variant] | 1.39

Please look up its self-aminoacylation: CUACUUCAAAGAAUGGGUCUG [Fam1A.1 aminoacylation ribozyme variant] 0.708

====

// self-aminoacylation lookup, one value per entry
- Tested on: biotinyl-Met-oxazolone
- Run description: self-aminoacylation, catalytic enhancement (BMO) (fold over background); higher = more active; k-Seq, kA / k0A0; sequences stand for … in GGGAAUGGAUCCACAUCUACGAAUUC…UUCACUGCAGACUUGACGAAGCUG
Variants at the floor of the assay were thinned out.
# output: bare number, no unit

Sequence data | System name | self-aminoacylation
AAUCACCUGGGUCAUCGGGUG [Fam2.2 aminoacylation ribozyme variant] | biotinyl-Met-oxazolone | 4.32
GCACUUCAAACAAUCGGUCUG [Fam1A.1 aminoacylation ribozyme variant] | biotinyl-Met-oxazolone | 2.32
AAGUUUGCCAAUAGUCGCAAA [Fam3.1 aminoacylation ribozyme variant] | biotinyl-Met-oxazolone | 2.37

Next up:
Please look up its self-aminoacylation: AUUACCUUAGUCAUCGAGUGA [Fam2.1 aminoacylation ribozyme variant] 4.41

====

- System: biotinyl-Val-oxazolone
- Run description: self-aminoacylation, catalytic enhancement (BVO) (fold over background); higher = more active; k-Seq, kA / k0A0; sequences stand for … in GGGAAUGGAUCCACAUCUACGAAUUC…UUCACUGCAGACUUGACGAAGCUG
This sample holds only a part of the variants without activity.
// self-aminoacylation lookup, one value per entry
# output: bare number, no unit

Consider the worked cases shown below.
Sequence data | System name | self-aminoacylation
AUUUACCUAGAUCAUCGGGUG [Fam2.2 aminoacylation ribozyme variant] | biotinyl-Val-oxazolone | 1.88
CCACAUUUCAAGCAAUCGUUC [Fam1B.1 aminoacylation ribozyme variant] | biotinyl-Val-oxazolone | 1.16
AUUACCCUGGUCAUCGCGGGA [Fam2.1 aminoacylation ribozyme variant] | biotinyl-Val-oxazolone | 4.56
GUACUUCAAACAACCGGUCUG [Fam1A.1 aminoacylation ribozyme variant] | biotinyl-Val-oxazolone | 1.54

# value lookup — system biotinyl-Val-oxazolone, readout self-aminoacylation, item GCACACUUCAAACAAUCGGUC [Fam1B.1 aminoacylation ribozyme variant] 2.19

# value lookup — system biotinyl-Val-oxazolone, readout self-aminoacylation, item AAGUUUGCUAAUCGUCGCAAU [Fam3.1 aminoacylation ribozyme variant] 1.3

# value lookup — system biotinyl-Val-oxazolone, readout self-aminoacylation, item UUACUUCAAACAAUCGAUCUG [Fam1A.1 aminoacylation ribozyme variant] 0.719

# value lookup — system biotinyl-Val-oxazolone, readout self-aminoacylation, item AUUACCCUUGUCAUUGAGUGA [Fam2.1 aminoacylation ribozyme variant] 4.34

====

// self-aminoacylation lookup, one value per entry
- Tested on: biotinyl-Ile-oxazolone
- Run description: self-aminoacylation, catalytic enhancement (BIO) (fold over background); higher = more active; k-Seq, kA / k0A0; sequences stand for … in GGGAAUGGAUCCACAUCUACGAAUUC…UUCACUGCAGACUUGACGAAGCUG
Fewer inactive variants are shown than the library holds.

Sequence data | Result value
CUACUUCAAAGAAUCGGUUUG [Fam1A.1 aminoacylation ribozyme variant] | 0.892
AUGCACCUAGGUAAUCGGGUG [Fam2.2 aminoacylation ribozyme variant] | 2.07
CCACACUUCAAGCCAUCCGUC [Fam1B.1 aminoacylation ribozyme variant] | 2.04
AAUUAUGCUAAUAGUCGCAAG [Fam3.1 aminoacylation ribozyme variant] | 2.21
UCACACUUCAAGCAAACGGUC [Fam1B.1 aminoacylation ribozyme variant] | 0.639
CUACUUCAGACAAUCGGACUG [Fam1A.1 aminoacylation ribozyme variant] | 0.864
ACUCACCUAGGGCAUCGGGUG [Fam2.2 aminoacylation ribozyme variant] | 4.42
AUUACCCUGUACAUCGAGUGA [Fam2.1 aminoacylation ribozyme variant] | 5.18

Please look up its self-aminoacylation: AUUCACCUAGGUCUUCUGGUG [Fam2.2 aminoacylation ribozyme variant] 3.9

====

- System: biotinyl-Leu-oxazolone
- Run description: self-aminoacylation, catalytic enhancement (BLO) (fold over background); higher = more active; k-Seq, kA / k0A0; sequences stand for … in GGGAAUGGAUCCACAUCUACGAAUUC…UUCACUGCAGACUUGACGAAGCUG
Fewer inactive variants are shown than the library holds.
Recorded endpoint: self-aminoacylation
# output: bare number, no unit

Sequence data | self-aminoacylation
AUACACCUAGGUGAUCGGGUG [Fam2.2 aminoacylation ribozyme variant] | 3.88
GCACACUUCAAGCGAUCGGUC [Fam1B.1 aminoacylation ribozyme variant] | 1.54
AAGUUUGCUAAUCGUCGCAAU [Fam3.1 aminoacylation ribozyme variant] | 1.04

Please look up its self-aminoacylation: CUACUUCUAAUAAUCGGUCUG [Fam1A.1 aminoacylation ribozyme variant] 0.63

Please look up its self-aminoacylation: CUACUUCAAACCAUCGGUUUG [Fam1A.1 aminoacylation ribozyme variant] 0.895

Please look up its self-aminoacylation: AUUACCCUGGUCAGCGAGUGG [Fam2.1 aminoacylation ribozyme variant] 2.51

Please look up its self-aminoacylation: AAGAUUGCUAAUAUUCGCAAG [Fam3.1 aminoacylation ribozyme variant] 1.58

Please look up its self-aminoacylation: CUACUUCAAAUAAUCGGGCUG [Fam1A.1 aminoacylation ribozyme variant] 0.965

Please look up its self-aminoacylation: AUUACCCUGGUCUUCGAGUGA [Fam2.1 aminoacylation ribozyme variant] 5.52

Please look up its self-aminoacylation: CCACACUUCAAGCAAUCCCUC [Fam1B.1 aminoacylation ribozyme variant] 0.729

Please look up its self-aminoacylation: CUACUUCAAAGAAUCGGUUUG [Fam1A.1 aminoacylation ribozyme variant] 0.845

Please look up its self-aminoacylation: AUUACCCUGAUCAUCGAGUGG [Fam2.1 aminoacylation ribozyme variant] 2.42

Please look up its self-aminoacylation: AAGUUUGCUAAUAGUCGAAUG [Fam3.1 aminoacylation ribozyme variant] 0.88

Please look up its self-aminoacylation: AAGUUUGCGAAUAGUCGCAGG [Fam3.1 aminoacylation ribozyme variant] 1.89

Please look up its self-aminoacylation: CCACACUUCAAGCAAUCAGCC [Fam1B.1 aminoacylation ribozyme variant] 1.51

Please look up its self-aminoacylation: GUACUUCAAACAAUCGGUCUC [Fam1A.1 aminoacylation ribozyme variant] 2.06

Please look up its self-aminoacylation: CUUCUUCAAACAAUCGGCCUG [Fam1A.1 aminoacylation ribozyme variant] 1.88

Please look up its self-aminoacylation: AAGCUUGCUAAUACUCGCAAG [Fam3.1 aminoacylation ribozyme variant] 0.856

====

// self-aminoacylation lookup, one value per entry
- System: biotinyl-Phe-oxazolone
- Run description: self-aminoacylation, catalytic enhancement (BFO) (fold over background); higher = more active; k-Seq, kA / k0A0; sequences stand for … in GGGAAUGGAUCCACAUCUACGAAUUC…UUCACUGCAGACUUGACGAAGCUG
Variants at the floor of the assay were thinned out.
# output: bare number, no unit

Consider the worked cases shown below.
Sequence data | self-aminoacylation
AUGACCCUGGUGAUCGAGUGA [Fam2.1 aminoacylation ribozyme variant] | 27.3
ACUCACCUAGGUCAUUGGGUG [Fam2.2 aminoacylation ribozyme variant] | 14.3

Please look up its self-aminoacylation: AAGUUUGCUAAUAAUCGAAAG [Fam3.1 aminoacylation ribozyme variant] 0.807

Please look up its self-aminoacylation: AUUACCCUGUUCAUGGAGUGA [Fam2.1 aminoacylation ribozyme variant] 62.8

Please look up its self-aminoacylation: AAGUUUGCUAAUAGUCGUAAA [Fam3.1 aminoacylation ribozyme variant] 2.23

Please look up its self-aminoacylation: AUUAACCUAGGUCAUGGGGUG [Fam2.2 aminoacylation ribozyme variant] 22.6

Please look up its self-aminoacylation: CUACUUCAAAAUAUCGGUCUG [Fam1A.1 aminoacylation ribozyme variant] 1.01

Please look up its self-aminoacylation: CUACUUCCAACAAUCGAUCUG [Fam1A.1 aminoacylation ribozyme variant] 0.773

Please look up its self-aminoacylation: CCACACUUCAAGCGAUCAGUC [Fam1B.1 aminoacylation ribozyme variant] 1.37

Where these numbers come from: the supplement of paper PMC9233669
